# tested-on: full-length BTK C481S enzyme (Homo sapiens (Human), UniProt Q06187, C481S)
# Sequence (Q06187 whole entry C481S): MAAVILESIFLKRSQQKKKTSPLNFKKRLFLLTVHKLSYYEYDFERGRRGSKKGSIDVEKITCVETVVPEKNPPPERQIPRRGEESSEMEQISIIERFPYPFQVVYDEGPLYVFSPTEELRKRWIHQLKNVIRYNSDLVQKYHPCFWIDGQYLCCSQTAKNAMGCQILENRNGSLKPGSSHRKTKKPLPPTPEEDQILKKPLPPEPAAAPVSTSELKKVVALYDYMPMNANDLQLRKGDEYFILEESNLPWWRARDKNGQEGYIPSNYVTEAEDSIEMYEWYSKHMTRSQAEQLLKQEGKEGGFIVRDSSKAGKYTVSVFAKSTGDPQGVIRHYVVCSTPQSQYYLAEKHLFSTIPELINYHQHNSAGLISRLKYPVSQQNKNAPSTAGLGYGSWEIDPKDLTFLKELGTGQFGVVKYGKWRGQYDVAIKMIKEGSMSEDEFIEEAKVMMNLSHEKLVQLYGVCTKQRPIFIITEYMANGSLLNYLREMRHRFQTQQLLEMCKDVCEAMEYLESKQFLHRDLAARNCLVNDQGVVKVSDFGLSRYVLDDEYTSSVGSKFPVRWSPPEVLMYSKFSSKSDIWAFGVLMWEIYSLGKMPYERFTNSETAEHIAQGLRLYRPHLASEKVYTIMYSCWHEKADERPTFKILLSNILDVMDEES
# assay-method-text: Biochemical kinase assay BTK C481S (IMAP)
pIC50: −log10 of the molar value.
Recorded pIC50 values for a group of compounds are listed next.

{"compound": "COc1cc(-c2nn3c4c(cnc(N)c24)/C=C/COCCC(=O)N[C@@H]2CCC[C@@H]3C2)ccc1C(=O)Nc1cc(C(F)(F)F)ccn1", "parameter": "pIC50", "measured-value": "> 8.30"}
{"compound": "Nc1ncc2c3c1c(-c1ccc(C(=O)Nc4ccccn4)cc1)nn3[C@@H]1CCC[C@H](C1)NC(=O)CCC/C=C/C2 [Example 99a]", "parameter": "pIC50", "measured-value": "6.30 to 7.30"}
{"compound": "Nc1ncc2c3c1c(-c1ccc(C(=O)Nc4cc(C(F)(F)F)ccn4)cc1F)nn3[C@@H]1CCC[C@H](C1)NC(=O)CCC/C=C/2", "parameter": "pIC50", "measured-value": "> 8.30"}
{"compound": "Cc1ccnc(NC(=O)c2ccc(-c3nc4n5c(cnc(N)c35)/C=C/CCOCCC(=O)N[C@@H]3CC[C@@H]4C3)cc2)c1", "parameter": "pIC50", "measured-value": "> 8.30"}
{"compound": "Nc1ncc2c3c1c(-c1ccc(C(=O)Nc4cc(F)ccn4)cc1)nn3[C@@H]1CCC[C@H](C1)NC(=O)CCOC/C=C/2", "parameter": "pIC50", "measured-value": "> 8.30"}

Which pIC50 is reported for this compound? Nc1ncc2c3c1c(-c1ccc(C(=O)Nc4cc(C(F)(F)F)ccn4)cc1)nn3[C@@H]1CCC[C@H](C1)NC(=O)CCCCCC/C=C\C2 [Example 103b] > 8.30

---

# tested-on: full-length BTK C481S enzyme (Homo sapiens (Human), UniProt Q06187, C481S)
# assay-method-text: Biochemical kinase assay BTK C481S (IMAP)
pIC50: −log10 of the molar value.
parameter: pIC50

The examples below pair each entry with its known result.
{"molecule": "N#Cc1ccnc(NC(=O)c2ccc(-c3nc4n5c(cnc(N)c35)/C=C/CCCCCC(=O)N[C@@H]3CCC[C@@H]4C3)cc2)c1 [Example 184]", "pIC50": "> 8.30"}
{"molecule": "N#Cc1ccnc(NC(=O)c2ccc(-c3nn4c5c(cnc(N)c35)/C=C/COCCC(=O)N[C@@H]3CC[C@@H]4C3)cc2)c1 [Example 183]", "pIC50": "> 8.30"}
{"molecule": "Nc1ncc2c3c1c(-c1ccc(C(=O)Nc4cc(C(F)(F)F)ccn4)cc1)nn3[C@@H]1CCC[C@H](C1)C(=O)NCCCCC/C=C\\C2 [Example 89b]", "pIC50": "> 8.30"}
{"molecule": "Nc1ncc2c3c1c(-c1ccc(C(=O)Nc4cc(C(F)(F)F)ccn4)cc1)nn3[C@@H]1CCC[C@H](C1)NC(=O)CCCCC/C=C/C2 [Example 101a]", "pIC50": "7.30 to 8.30"}

Quick check: pIC50 of C[C@@H]1CCn2nc(-c3ccc(Oc4ccccc4)cc3)c3c(N)ncc(c32)/C=C/CCCCCC(=O)N1 [Example 173] ? > 8.30

Give its pIC50 value. Item: Nc1ncc2n3c(nc(-c4ccc(C(=O)Nc5cc(C(F)(F)F)ccn5)cc4)c13)CCCNC(=O)CCC=CC2 [Example 134] 7.30 to 8.30

---

# tested-on: full-length BTK C481S enzyme (Homo sapiens (Human), UniProt Q06187, C481S)
# assay-method-text: Biochemical kinase assay BTK C481S (IMAP)
In this section, each of the molecules is paired with its reported IC50.

Worked examples, 5 molecules total:
{"molecule": "Nc1ncc2c3c1c(-c1ccc(C(=O)Nc4ccccn4)cc1)nn3[C@@H]1CCC[C@H](C1)C(=O)NCCCC/C=C\\C2 [Example 87b]", "tested-on": "full-length BTK C481S enzyme (Homo sapiens (Human), UniProt Q06187, C481S)", "measured-value": "< 5 nM"}
{"molecule": "C[C@@H]1CCn2nc(-c3ccc(C(=O)Nc4cc(C(F)(F)F)ccn4)cc3)c3c(N)ncc(c32)/C=C/COCC(=O)N1", "tested-on": "full-length BTK C481S enzyme (Homo sapiens (Human), UniProt Q06187, C481S)", "measured-value": "< 5 nM"}
{"molecule": "N#Cc1ccnc(NC(=O)c2ccc(-c3nn4c5c(cnc(N)c35)/C=C/CCN3CC[C@H]3C(=O)N[C@@H]3CC[C@@H]4C3)cc2)c1", "tested-on": "full-length BTK C481S enzyme (Homo sapiens (Human), UniProt Q06187, C481S)", "measured-value": "< 5 nM"}
{"molecule": "Nc1ncc2c3c1c(-c1ccc(C(=O)Nc4cc(C(F)(F)F)ccn4)cc1)nn3[C@@H]1CCC[C@H](C1)NC(=O)CNCCCC2", "tested-on": "full-length BTK C481S enzyme (Homo sapiens (Human), UniProt Q06187, C481S)", "measured-value": "< 5 nM"}
{"molecule": "CN1C/C=C/c2cnc(N)c3c(-c4ccc(C(=O)Nc5cc(C(F)(F)F)ccn5)cc4)nn(c23)[C@@H]2CCCN(C2)C(=O)CCCC1", "tested-on": "full-length BTK C481S enzyme (Homo sapiens (Human), UniProt Q06187, C481S)", "measured-value": "< 5 nM"}

Give its IC50 value. Item: "CN1CC/C=C/c2cnc(N)c3c(-c4ccc(C(=O)Nc5cc(C(F)(F)F)ccn5)cc4)nn(c23)[C@@H]2CCC[C@H](C2)NC(=O)CC1" < 5 nM

So what's the measured IC50 for this one? "C[C@@H]1CCn2nc(-c3ccc(C(=O)Nc4cc(C(F)(F)F)ccn4)cc3)c3c(N)ncc(c32)CCCOCC(=O)N1" 5 to 50 nM

What measured IC50 goes with "Nc1ncc2n3c(nc(-c4ccc(C(=O)Nc5cc(C(F)(F)F)ccn5)cc4)c13)[C@@H]1CC[C@H](C1)NC(=O)CNCC/C=C/2" ? < 5 nM

Request the reported IC50 associated with "Nc1ncc2c3c1c(-c1ccc(C(=O)Nc4cc(C(F)(F)F)ccn4)cc1)nn3[C@@H]1CCCN(C1)C(=O)CCCCC/C=C/2" < 5 nM

Could you tell me which IC50 is on file for "Nc1ncc2c3c1c(-c1ccc(C(=O)Nc4cc(C(F)(F)F)ccn4)cc1)nn3[C@@H]1CCC[C@H](C1)NC(=O)[C@@H]1CCN(C/C=C/2)C1" ? < 5 nM

What does the data say about its IC50? Entry: "C[C@@H]1CCn2nc(-c3ccc(C(=O)Nc4cc(C(F)(F)F)ccn4)cc3)c3c(N)ncc(c32)/C=C/CN2CCN[C@H](C2)C(=O)N1" < 5 nM

Name the reported IC50 value associated with the molecule "C[C@@H]1CC(=O)N[C@@H]2CCC[C@H](C2)n2nc(-c3ccc(C(=O)Nc4cc(C(F)(F)F)ccn4)cc3)c3c(N)ncc(c32)/C=C/CCO1" < 5 nM

What IC50 value was documented for this molecule, "Nc1ncc2n3c(nc(-c4ccc(C(=O)Nc5cc(C(F)(F)F)ccn5)cc4)c13)CCCNC(=O)CCCC=CC2" ? 5 to 50 nM

---

Recorded IC50 by entry
# Test system: wt-TMD8 diffuse large B-cell lymphoma cells
# assay-method-text: Cell proliferation assay wt-TMD8 (ATPlite, 120 hours)
# Format: cell-based
# experimental-parameters: B-cell; wt-TMD8 cells, 120 hours, ATPlite; read-out: IC50 wt-TMD8

{"molecule": "C[C@@H]1CC(=O)N[C@@H]2CCC[C@H](C2)n2nc(-c3ccc(C(=O)Nc4cc(F)ccn4)cc3)c3c(N)ncc(c32)/C=C/CCN1 [Example 191]", "IC50": "< 100 nM"}

Looking for the measured IC50 of Cn1nc(NC(=O)c2ccc(-c3nc4n5c(cnc(N)c35)/C=C/CCOCCC(=O)N[C@@H]3CC[C@@H]4C3)cc2)cc1C(F)(F)F [Example 216] , can you help? < 100 nM

Name the recorded IC50 for Nc1ncc2c3c1c(-c1ccc(C(=O)Nc4ccccn4)cc1)nn3[C@@H]1CCC[C@H](C1)NC(=O)CCCC/C=C/2 [Example 23] . < 100 nM

Which value of IC50 has been reported for Nc1ncc2c3c1c(-c1ccc(C(=O)Nc4cc(C(F)(F)F)ccn4)cc1)nn3[C@@H]1CCC[C@H](C1)NC(=O)CNCCC/C=C/2 [Example 31] in the records? < 100 nM

Entry Nc1ncc2c3c1c(-c1ccc(C(=O)Nc4cc(C(F)(F)F)ccn4)cc1)nn3[C@@H]1CCCN(C1)C(=O)CCCC/C=C/2 [Example 77] : reported IC50 = ? 100 to 1000 nM

Record request: IC50 value, item Nc1ncc2c3c1c(-c1ccc(C(=O)Nc4cc(C(F)(F)F)ccn4)cc1)nn3[C@@H]1COC[C@H](C1)NC(=O)CCOC/C=C/2 [Example 192] < 100 nM

Please give the measured IC50 for this molecule: Nc1ncc2c3c1c(-c1ccc(C(=O)Nc4cc(C(F)(F)F)ccn4)cc1)nn3[C@@H]1CCCN(C1)C(=O)CCCCCC/C=C/2 [Example 79] < 100 nM

What measured IC50 goes with Nc1ncc2c3c1c(-c1ccc(C(=O)Nc4cc(F)ccn4)cc1)nn3[C@@H]1CCC[C@H](C1)NC(=O)CCOCC/C=C/2 [Example 193] ? < 100 nM

Item under review: COc1ccc(F)cc1C(=O)NCc1ccc(-c2nn3c4c(cnc(N)c24)/C=C/CO[C@H](C)C(=O)N[C@@H]2CCC[C@@H]3C2)cc1 [Example 53] . Reported IC50? < 100 nM
